The origin of these recorded values is paper PMC7070443.

System: human platelets
assay.notes: ROS production inhibition in thrombin-stimulated washed platelets (DCFH-DA, flow cytometry)
Format: cell-based
particulars: human platelets, thrombin stimulated
assay.endpoint: activity towards ROS production in platelets (in words)

# count of solved cases: 5
molecule="COc1cccc(/C=N/NC(=O)c2cnn3c2NC(c2ccccc2)C3)c1Oc1ccccc1 (stereo not drawn) [5i]" result="completely inactive"
molecule="COc1cccc(/C=N/NC(=O)c2cnn(CC(O)c3ccccc3)c2N)c1OCc1ccccc1 (stereo not drawn) [4j]" result="completely inactive"
molecule="COc1cccc(/C=N/NC(=O)c2cnn(CC(O)c3ccccc3)c2N)c1Oc1ccccc1 (stereo not drawn) [4i]" result="completely inactive"
molecule="NNC(=O)c1cnn(CC(O)c2ccccc2)c1N (stereo not drawn) [compound 7]" result="completely inactive"
molecule="NNC(=O)c1cnn2c1NC(c1ccccc1)C2 (stereo not drawn) [compound 12]" result="completely inactive"

So what does the record say about activity towards ROS production in platelets (in words) for COc1cc(/C=N/NC(=O)c2cnn(CC(O)c3ccccc3)c2N)cc(OC)c1OC (stereo not drawn) [4h] ?
inactive

Request the reported activity towards ROS production in platelets (in words) associated with COc1cc(/C=N/NC(=O)c2cnn3c2NC(c2ccccc2)C3)cc(OC)c1OC (stereo not drawn) [5h]
inactive

Sample COc1cccc(/C=N/NC(=O)c2cnn3c2NC(c2ccccc2)C3)c1OCc1ccccc1 (stereo not drawn) [5j] — what was its activity towards ROS production in platelets (in words)?
completely inactive

Record request: activity towards ROS production in platelets (in words) value, item COc1ccc(/C=N/NC(=O)c2cnn3c2N(C(C)=O)C(c2ccccc2)C3)cc1OC1CCCC1 (stereo not drawn) [5k]
completely inactive

====

Tested on: human platelets
assay.notes: Platelet aggregation inhibition (Born's method, thrombin-stimulated washed platelets)
Assay type: cell-based
particulars: Platelet, 0.1 U/mL thrombin, mean +/- SD, at least six experiments in duplicate
assay.endpoint: IC50 (µM)
Respond with the bare value in µM.

Take a look at these entries with their results.
compound="O=C(N/N=C/c1ccc2c(c1)OCO2)c1cnn2c1NC(c1ccccc1)C2 (stereo not drawn)" result_number=67
compound="Nc1c(C(=O)N/N=C/c2ccc(OC(F)F)c(Oc3ccccc3)c2)cnn1CC(O)c1ccccc1 (stereo not drawn)" result_number=9.8

What value of IC50 has been recorded for this entry: COc1ccc(/C=N/NC(=O)c2cnn3c2NC(c2ccccc2)C3)cc1OC (stereo not drawn)
31.5

Requested read-out: IC50. Entry: COc1ccc(/C=N/NC(=O)c2cnn(CC(O)c3ccccc3)c2N)cc1OC1CCCC1 (stereo not drawn)
29.8

What IC50 value was documented for this compound, COc1ccc(/C=N/NC(=O)c2cnn3c2NC(c2ccccc2)C3)cc1OC1CCCC1 (stereo not drawn) ?
71

Please report the recorded IC50 for CCC(C)Oc1cc(/C=N/NC(=O)c2cnn(CC(O)c3ccccc3)c2N)ccc1OC (stereo not drawn) .
57.1

# IC50 lookup, item Nc1c(C(=O)N/N=C/c2ccc(OC(F)F)c(OC3CCCC3)c2)cnn1CC(O)c1ccccc1 (stereo not drawn)
29.4

I have this compound here, COc1ccc(/C=N/NC(=O)c2cnn3c2NC(c2ccccc2)C3)cc1OC1CCCCC1 (stereo not drawn) , and I need its recorded IC50.
61.6

Any idea what IC50 was measured for Nc1c(C(=O)N/N=C/c2ccc(OC(F)F)c(OCc3ccccc3)c2)cnn1CC(O)c1ccccc1 (stereo not drawn) ?
11

Fill in: IC50 of COc1cccc(/C=N/NC(=O)c2cnn3c2NC(c2ccccc2)C3)c1OC1CCCC1 (stereo not drawn) is ___
59.1
